- TARGET_OF_ASSAY: mouse TREM2 truncated stalk peptide (aa 149-163) (mouse) (UniProt Q99NH8)
- ASSAY_METHOD_TEXT: ELISA on biotinylated peptide captured by streptavidin; A450 normalised to isotype control
Quick list: fold over background (A450) per entry.
Numeric only. Scale: fold

// lookup fold over background (A450) for CL0020201 (antibody, V domains shown) VH: EVQLQQSGPVLVKPGASVRMSCKPSGYTFTDYYMNWVKQSHGKSLEWIGSINPYTGGSSYNQNFRGKATLTVDKSSSTAYMELNSLTSEDSAVYYCARGSYYSNLGFAYWGQGTLVTVSA VL: DVQLTQSPSFLTASPGETITINCRASKSISKYLAWYQEKPGKTNKLLISSGSTLQSGIPSRFSGSGSGTDFTLTISSLEPEDFAMYYCQQYSEYPFTFGSGTKLEIK
1.8

Which fold over background (A450) reading was recorded for the binder CL0020188 (antibody, V domains shown) VH: EVKLLDSGGGLVQAGGSLRLSCAGSGFTFTDFYMSWIRQPPGKAPEWLGVIRNKANGYTAGYNPSVKGRFTISRDNTQNILYLQMNTLRAEDTAIYYCARLTYGFDYWGQGVMVTVSS VL: DIVMTQGALPNPVPSGESASITCQSSKSLLHSNGKTYLNWYLQRPGQSPQLLIYWMSTRASGVSDRFSGSGSGTDFTLKISSVEAEDVGVYYCQQFLEYPFTFGSGTKLEIK ?
0.9

Entry CL0020309 (antibody, V domains shown) VH: QVQLKQSGPSLVQPSQSLSITCTVSGFSLTSYGVQWVRQSPGKGLEWLGVIWTGGTTDFNAAFKSRLSITKDNSKSQVFFKMNSLQADDSAIYYCAKIGFHSAVDYWGQGTSVTVSS VL: DVLMTQTPLSLPVSLGDQASISCRSSQNIVHSNGNTYLEWYLQKPGQSPKLLIYKVSNRFSGVPDRFSGSGSGTDFTLKINRVEAEDLGLYYCFQGSHIPFTFGSGTQLEIK has what fold over background (A450)?
1.3
